- System: A549
- experiment: MTT cytotoxicity assay, A549
- Type: cell-based
- experimental-conditions: Homo sapiens, A549; MTT assay; 50% inhibition of cell growth; read-out: IC50 A549
- Protocol: The xanthones 1–11 were tested for cytotoxicity against HeLa, A549, HCT-116, and HepG-2 human cancer cell lines and inhibition on the proliferation of the HUVEC cell line by using the MTT assay according to the described protocols.
experimental-readout: IC50

compound	experimental-readout	endpoint-value
CC(C)=CCc1c2c(c(O)c3c1O[C@]14C(=C[C@@H]5C[C@H]1C(C)(C)O[C@@]4(C/C=C(/C)C=O)C5=O)C3=O)C=CC(C)(C)O2 [Xanthone 5, morellin isomers]	IC50	6.43 µM
CC(C)=CCC/C(C)=C/Cc1c(O)c2c(c3c1O[C@@H](C(C)(C)O)C3)O[C@]13C(=C[C@@H]4C[C@H]1C(C)(C)O[C@@]3(C/C=C(/C)C(=O)O)C4=O)C2=O [Xanthone 4, gambogenific acid]	IC50	11.3 µM
CC(C)=CCC/C(C)=C/Cc1c(O)c(CC=C(C)C)c2c(c1O)C(=O)C1=C[C@@H]3C[C@H]4C(C)(C)O[C@@](C/C=C(/C)C=O)(C3=O)[C@@]14O2 [Xanthone 7, gambogenin]	IC50	4.88 µM
CC(C)=CCC/C(C)=C/Cc1c(O)c(CC=C(C)C)c2c(c1O)C(=O)C1=C[C@@H]3C[C@H]4C(C)(C)O[C@@](C/C=C(/C)C(=O)O)(C3=O)[C@@]14O2 [Xanthone 2, gambogenic acid]	IC50	4.76 µM
CC(C)=CCCC1(C)C=Cc2c(O)c3c(c(CC=C(C)C)c2O1)O[C@]12C(=C[C@@H]4C[C@H]1C(C)(C)O[C@@]2(C/C=C(\C)C(=O)O)C4=O)C3=O (some centres unmarked) [Xanthone 8, isogambogic acid]	IC50	2.86 µM
CC(C)=CCC/C(C)=C/Cc1c(O)c(CC=C(C)C)c2c(c1O)C(=O)C1=C[C@@H]3C[C@H]4C(C)(C)O[C@@](C/C=C(\C)C(=O)O)(C3=O)[C@@]14O2 [Xanthone 9, isogambogenic acid]	IC50	12.7 µM
CC(C)=CCC[C@]1(C)C=Cc2c(O)c3c(c(CC=C(C)C)c2O1)O[C@]12C(=C[C@@H]4C[C@H]1C(C)(C)O[C@@]2(C/C=C(/C)C(=O)O)C4=O)C3=O [Xanthone 1, gambogic acid]	IC50	1.55 µM
CC(C)=CCC/C(C)=C/Cc1c(O)c(CC=C(C)C)c2c(c1O)C(=O)C1=C[C@@H]3C[C@H]4C(C)(C)O[C@@](C/C=C(\C)C=O)(C3=O)[C@@]14O2 [Xanthone 6, isogambogenin]	IC50	4.88 µM
